# reported melting point; entries follow

compound	melting point
O=C(O)Cc1ccc([N+](=O)[O-])cc1Br	164 to 166 °C
Fc1ccccc1-c1nnc(S)[nH]1	154 to 156 °C
O=C(c1c[nH]c(=O)[nH]1)N1CCNCC1	269 to 271 °C
CN(C)c1ccc(-n2ccnc2S)cc1	249 to 251 °C
Oc1nnc(S)n1CCc1ccccc1	167 to 169 °C

melting point lookup needed for `O=C(O)CCNS(=O)(=O)c1ccc2ccccc2c1` , thanks.
170 to 180 °C

melting point lookup needed for CCNCC(O)c1ccc(C)cc1 (centres undefined) , thanks.
88 to 90 °C

melting point lookup needed for `CC(C)c1cnc(S)n1C(C)C` , thanks.
177 to 179 °C

melting point lookup needed for `Cc1ccc(NC2CCCCC2)nc1` , thanks.
89 to 91 °C

melting point lookup needed for `Cc1coc(-c2ccc(C)c(N)c2)n1` , thanks.
114 to 116 °C

melting point lookup needed for `COC(=O)c1ccc(S(=O)(=O)Cl)cc1C` , thanks.
54 to 56 °C

melting point lookup needed for O=C(O)CN1C(=O)C2CCCCC2C1=O (centres undefined) , thanks.
88 to 90 °C

melting point lookup needed for `Cc1nc(N)sc1Cl` , thanks.
100 to 102 °C

melting point lookup needed for `CCOc1ccc(/C=C/C(=O)O)cc1OC` , thanks.
202 to 204 °C
